meta.source: PubChem BioAssay (EPA / NIEHS)

Read-out: TIMP metallopeptidase inhibitor 2 (TIMP2), TIMP2 (gene 7077)
method: BSK_KF3CT_TIMP2: BioMAP Diversity Plus: KF3CT Assay for TIMP metallopeptidase inhibitor 2 (TIMP2) Biomarker Activity (AID 2283071)
condition-description: primary human keratinocytes with fibroblasts; actives raise or lower the signal
Description: BSK_KF3CT is a cell-based, multiplexed-readout assay that uses keratinocytes and foreskin fibroblasts, a human skin primary cell co-culture, with measurements taken at 24 hours after chemical dosing in a 96-well plate.BSK_KF3CT_TIMP2 is an assay component measured in the BSK_KF3CT assay. It measures TIMP-2 antibody related to regulation of gene expression using ELISA technology.Data from the assay component BSK_KF3CT_TIMP2 was analyzed into 1 assay endpoint. […]
Activity calls are given as the source filed them. Rule for the calls: active = hit-call score of the fitted dose curve at least 0.9, where 1 is the maximum; inactive = score below 0.9.
Outcome codes: active, inactive

| compound | cat |
| --- | --- |
| COc1cccc(-c2ccc(/C=C\CN3CCCCCC3)cc2Cl)c1 | active |
| O=C(OC[C@H]1O[C@@H](OC(=O)c2cc(O)c(O)c(OC(=O)c3cc(O)c(O)c(O)c3)c2)[C@H](OC(=O)c2cc(O)c(O)c(OC(=O)c3cc(O)c(O)c(O)c3)c2)[C@@H](OC(=O)c2cc(O)c(O)c(OC(=O)c3cc(O)c(O)c(O)c3)c2)[C@@H]1OC(=O)c1cc(O)c(O)c(OC(=O)c2cc(O)c(O)c(O)c2)c1)c1cc(O)c(O)c(OC(=O)c2cc(O)c(O)c(O)c2)c1 | active |
| COc1ccc(/C=C/S(=O)(=O)NC(=O)c2ccc(C)cc2Cl)cc1 | inactive |
| On1ccccc1=S | active |
| O=P(OC(CCl)CCl)(OC(CCl)CCl)OC(CCl)CCl | inactive |
| COC(=O)c1c(Cl)c(Cl)c(C(=O)OC)c(Cl)c1Cl | inactive |
| Cc1[nH]cnc1C[C@H]1CCc2c(C)c3ccccc3n2C1=O | inactive |
| Cc1ccc(N)cc1O | inactive |
| CCOc1cccc(-n2cc(C(=O)N3CCN(c4cc(C(=O)O)c5ccccc5c4)CC3)nc2-c2ccc(C)cc2)c1 | active |
| CCCCC(CC)COC(=O)CCCCCCCCC(=O)OCC(CC)CCCC (stereo not given) | inactive |
| CC[C@H]1CC[C@H](NCc2cc3c(cc2OC)[C@H]2C[C@H]2C(=O)N3C)[C@H](c2ccccc2)N1 | inactive |
| CNCc1ccc(NC(=O)c2c[nH]c3c2C(=O)CCC3)cc1 | inactive |
| CCCCCCCCCCCCCCCO | inactive |
| Cc1ccc(O)cc1 | inactive |
| O=C(O)CCN(C1(C(=O)NO)CCCC1)S(=O)(=O)c1ccc(Oc2ccc(F)cc2)cc1 | inactive |
| Cn1cnc([N+](=O)[O-])c1Sc1ncnc2nc[nH]c12 | inactive |
| Cc1ccc(C)c(O)c1 | inactive |
| O=c1n(CC2CO2)c(=O)n(CC2CO2)c(=O)n1CC1CO1 (stereo not given) | inactive |
| Fc1ccccc1[C@@H](F)COC1CCC(Nc2ncnc3[nH]ncc23)CC1 (stereo not given in full) | inactive |
| CCCC(=O)OCC | inactive |
| COc1ccc(-n2nc(C(F)F)cc2-c2ccc(S(C)=O)cc2)cc1 (stereo not given) | inactive |
| COCCOc1cc2cc(C(=O)NC3CCN(C(C)C)CC3)n(CC(=O)Nc3ccc(Cl)cn3)c2cn1 | inactive |
| CC(O)CN(CCN(CC(C)O)CC(C)O)CC(C)O (stereo not given) | inactive |
| Cc1c(-c2cccnc2)c2ccccc2n1CCCCC(=O)O | inactive |
| CCNc1ccccc1 | inactive |

---

Read-out: growth arrest and DNA damage 45 (GADD45A), GADD45A (gene 1647)
method: LTEA_HepaRG_GADD45A: Life Technologies and Expression Analysis (LTEA) Assay for growth arrest and DNA damage 45 (GADD45A) using HepaRG (AID 2283458)
condition-description: mRNA level, 48 h; actives raise or lower the signal
Active and inactive are the calls of the source. How the source made its calls: active means hit-call score of the fitted dose curve at least 0.9, where 1 is the maximum; inactive means score below 0.9.
Outcome codes: active, inactive

| compound | cat |
| --- | --- |
| COCCOc1cc2cc(C(=O)NC3CCN(C(C)C)CC3)n(CC(=O)Nc3ccc(Cl)cn3)c2cn1 | inactive |
| CCN(C(=O)c1cc(C)cc(OC[C@H](C)Nc2ccncc2)c1)C(C)C | active |
| CCCCCCCCO | inactive |
| COC(=O)c1ccccc1O | inactive |
| CC(C)CCCCCCCOC(=O)CCCCC(=O)OCCCCCCCC(C)C | inactive |
| COc1ccc(-n2nc(C(F)F)cc2-c2ccc(S(C)=O)cc2)cc1 (centres undefined) | inactive |
| CCCCC(CC)COC(=O)c1ccc(C(=O)OCC(CC)CCCC)cc1 (centres undefined) | inactive |
| CC[C@H](C)C(=O)O[C@H]1C[C@@H](C)C=C2C=C[C@H](C)[C@H](CC[C@@H]3C[C@@H](O)CC(=O)O3)[C@H]21 | inactive |
| O=C(O)CC(O)C(=O)O (centres undefined) | inactive |
| C=CCCCCCCCCC(=O)O | inactive |
| Nc1ccc(Nc2ccccc2)cc1 | inactive |
| CC(C)(O)c1coc(S(=O)(=O)NC(=O)Nc2c3c(cc4c2CCC4)CCC3)c1 | inactive |
| CCOCCOCCOCCO | inactive |
| CC(C)=CCCC(C)CCO (centres undefined) | inactive |

---

Read-out: Apoptosis regulator Bcl-2 (Homo sapiens) (UniProt P10415)
Sequence (P10415 whole entry, looked up): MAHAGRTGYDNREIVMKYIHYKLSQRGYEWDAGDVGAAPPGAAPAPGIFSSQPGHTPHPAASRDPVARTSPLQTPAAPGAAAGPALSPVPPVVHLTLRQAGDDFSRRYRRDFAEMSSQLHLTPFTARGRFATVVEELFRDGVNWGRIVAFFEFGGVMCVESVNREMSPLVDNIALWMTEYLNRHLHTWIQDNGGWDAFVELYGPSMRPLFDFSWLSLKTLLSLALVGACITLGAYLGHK
method: LTEA_HepaRG_BCL2: Life Technologies and Expression Analysis (LTEA) Assay for Bcl-2 gene using HepaRG (AID 2283475);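 note: BCL2 transcript by TaqMan qRT-PCR normalised to ACTB GAPDH and POLR2A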
condition-description: mRNA level, 48 h; actives raise or lower the signal
Activity calls are given as the source filed them. Rule for the calls: active = hit-call score of the fitted dose curve at least 0.9, where 1 is the maximum; inactive = score below 0.9.
property-measured: AC50

| compound | recorded-result |
| --- | --- |
| O=C(O)CC(O)C(=O)O (centres undefined) | inactive |
| COc1cccc(-c2ccc(/C=C\CN3CCCCCC3)cc2Cl)c1 | 67.4 µM (active) |
| COc1ccc(/C=C/S(=O)(=O)NC(=O)c2ccc(C)cc2Cl)cc1 | inactive |
| CCCN(C1CCN(C(=O)C2CCNCC2)CC1)[C@@H]1CCc2ccc(OC)cc2C1 | inactive |

---

method: ATG_SREBP_CIS: Attagene CIS-FACTORIAL HepG2 Assay for human Sterol Regulatory Element Binding (SREBP) (AID 2282962)
condition-description: HepG2 Attagene cis-factorial SREBP reporter, mRNA; actives raise or lower the signal
Active and inactive are the calls of the source. How the source made its calls: active means hit-call score of the fitted dose curve at least 0.9, where 1 is the maximum; inactive means score below 0.9.
Outcomes: T = active, F = inactive

| compound | cat |
| --- | --- |
| COc1ccc(-n2nc(C(F)F)cc2-c2ccc(S(C)=O)cc2)cc1 (centres undefined) | T |
| CC(C)=CCC/C(C)=C\CO | F |
| CCCCC(CC)COC(=O)c1ccc(C(=O)OCC(CC)CCCC)cc1 (centres undefined) | F |
| CC(C)CCCCCCCOC(=O)CCCCC(=O)OCCCCCCCC(C)C | F |
| Cc1ccc(S(=O)(=O)O)cc1C | F |
| COC(=O)CC(=O)OC | F |
| CCOC(=O)COc1ccc2c(c1)CC(NCC(O)c1cccc(Cl)c1)CC2 (centres undefined) | F |
| CC[C@H](C)C(=O)O[C@H]1C[C@@H](C)C=C2C=C[C@H](C)[C@H](CC[C@@H]3C[C@@H](O)CC(=O)O3)[C@H]21 | T |
| CC(C)CCCCCCOC(=O)c1ccc(C(=O)OCCCCCCC(C)C)c(C(=O)OCCCCCCC(C)C)c1 | F |

---

Read-out: Fatty acid synthase (Homo sapiens)
method: LTEA_HepaRG_FASN: Life Technologies and Expression Analysis (LTEA) Assay for Fatty Acid Synthase (FASN) using HepaRG (AID 2283448)
condition-description: mRNA level, 48 h; actives raise or lower the signal
Activity calls are given as the source filed them. How the source made its calls: active means hit-call score of the fitted dose curve at least 0.9, where 1 is the maximum; inactive means score below 0.9.
Outcome codes: y = active, n = inactive

| substance-smiles | cat |
| --- | --- |
| Cn1c(=O)c2c(ncn2C)n(C)c1=O | n |
| COc1cccc(-c2ccc(/C=C\CN3CCCCCC3)cc2Cl)c1 | y |
| O=C(O)c1cccc(Oc2ccccc2)c1 | n |
| CCOc1cccc(-n2cc(C(=O)N3CCN(c4cc(C(=O)O)c5ccccc5c4)CC3)nc2-c2ccc(C)cc2)c1 | y |
| CC(C)CCCCCCOC(=O)c1ccc(C(=O)OCCCCCCC(C)C)c(C(=O)OCCCCCCC(C)C)c1 | n |
| Cn1c(=O)cc(Oc2ccc(F)cc2F)c2cnc(NCC(C)(C)O)nc21 | n |
| COC(=O)c1c(Cl)c(Cl)c(C(=O)OC)c(Cl)c1Cl | n |
| CC(C)CCO | n |
| CCCCCCCCCCCCCCCO | n |
| CCCCCCCCO | n |
| O=C(CCCCCCCCc1cccnc1)N1CCC(C=C(c2ccccc2)c2ccccc2)CC1 | y |
| CN(C)c1ccc(Cc2ccc(N(C)C)cc2)cc1 | n |
